# assay_overview: small-molecule binders of probe aNOTCH3, primary screen, biochemical, small-molecule microarray, 635/667 nm fluorescence (AID 1120);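 also: probe is a biotin-tagged antibody raised against NOTCH3 rather than NOTCH3 protein; score merges spot fluorescence near 667 nm with spot signal to noise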
# run_parameters: higher = more signal
Given measured composite z-score, output TRUE if it is greater than or equal to 0.06 and FALSE if not.

// inclusive: composite z-score at least 0.06? input: COc1cc(NN2C(C(O)c3ccco3)C=CC3C(=O)N(c4ccccc4)C(=O)C32)cc(OC)c1OC (stereo unspecified) FALSE

// inclusive: composite z-score at least 0.06? input: `C=CC[C@@]1(C(=O)NCCN2CCOCC2)N=C(c2ccc(OCCCO)cc2)O[C@@H]1c1ccccc1N=[N+]=[N-]` FALSE

// inclusive: composite z-score at least 0.06? input: `COc1ccc([C@H]2OC[C@@H]3C[C@@H](Cc4ccccc4)C(=O)N32)cc1` TRUE

// inclusive: composite z-score at least 0.06? input: O=C(NCCN1CCOCC1)C1N=C(c2ccc(OCCCO)cc2)N(c2ccccc2)O1 (stereo unspecified) FALSE

// inclusive: composite z-score at least 0.06? input: C=C(C)[C@@H]1CC=C(C(O)C2C=CC3C(=O)N(c4ccccc4)C(=O)C3N2Nc2ccccc2)CC1 (stereo partly specified) TRUE

// inclusive: composite z-score at least 0.06? input: `NC(=O)NCC#Cc1ccc2c(c1)[C@]1(C(=O)N2)[C@H](c2ccccc2OCCO)N2[C@H](c3ccccc3)[C@H](c3ccccc3)OC(=O)[C@H]2[C@@H]1C(=O)Nc1nc2ccccc2s1` TRUE

// inclusive: composite z-score at least 0.06? input: `CCCC=C(CCC)[C@@H](NC(=O)c1cccs1)c1ccc(C(F)(F)F)cc1` TRUE

// inclusive: composite z-score at least 0.06? input: `C=C[C@@H](COC(=O)OC(C)(C)C)N(Cc1ccc(OC)cc1)S(=O)(=O)c1ccc(Br)cc1` TRUE

// inclusive: composite z-score at least 0.06? input: `[N-]=[N+]=NCc1ccccc1C[C@]1(C(=O)N2CCCCC2)N=C(c2ccc(OCCCO)cc2)O[C@H]1c1ccccc1N=[N+]=[N-]` TRUE

// inclusive: composite z-score at least 0.06? input: CC(C)=CCCC(C)=CC(O)C1C=CC2C(=O)N(C)C(=O)C2N1Nc1ccccc1 (stereo unspecified) TRUE

// inclusive: composite z-score at least 0.06? input: `CCOC(=O)C[C@H]1[C@H](OC(=O)c2ccc(C(=O)c3ccccc3)cc2)[C@@H](NC(=O)c2ccc3ccccc3n2)c2cc(OCCCO)ccc2N1C(=O)c1ccccc1` FALSE

// inclusive: composite z-score at least 0.06? input: `O=C1c2ccccc2[C@](Cc2ccccc2I)(C(=O)NCCN2CCOCC2)[C@H](c2ccc(CO)cc2)N1C1CCCCC1` TRUE

// inclusive: composite z-score at least 0.06? input: `COC(=O)[C@@]1(Cc2ccc(OC)cc2)[C@@H]2C(=CC(=O)[C@H]2CC(=O)C(=O)N2CCCC2)CN1C(=O)c1ccccc1` TRUE

// inclusive: composite z-score at least 0.06? input: OCCCC1=CC(c2cccs2)N(Cc2cc3c(cc2Br)OCO3)CC1 (stereo unspecified) FALSE

// inclusive: composite z-score at least 0.06? input: `COc1ccc(C#Cc2ccc3c(c2)[C@]2(C(=O)N3)[C@H](c3ccccc3OCCO)N3[C@H](c4ccccc4)[C@H](c4ccccc4)OC(=O)[C@H]3[C@@H]2C(=O)Nc2nc3ccccc3s2)cc1` TRUE

// inclusive: composite z-score at least 0.06? input: `C=CCOC(=O)[C@@H]1[C@H]2C(=O)O[C@H](c3ccccc3)[C@H](c3ccccc3)N2[C@H](c2ccc(OCCOC(=O)[C@H]3C[C@H]4C(=O)N5CCC[C@H]5C(=O)N4[C@H]3c3ccc(O)cc3)cc2)[C@@]12C(=O)Nc1ccc(I)cc12` FALSE

// inclusive: composite z-score at least 0.06? input: `COc1cc2c(cc1OC)CN(C(=O)[C@H]1[C@@H]3C(=O)O[C@@H](c4ccccc4)[C@@H](c4ccccc4)N3[C@@H](c3ccc(O)cc3)[C@]13C(=O)Nc1ccccc13)CC2` FALSE

// inclusive: composite z-score at least 0.06? input: `CCC[C@@H]1C[C@@]1(CCC)[C@@H](NC(=O)c1ccccc1)c1cccc(Cl)c1` TRUE

// inclusive: composite z-score at least 0.06? input: `CNS(=O)(=O)c1ccc(C)cc1` FALSE

// inclusive: composite z-score at least 0.06? input: `C=CCN1C(=O)[C@@]2(Cc3ccccc31)N=C(c1ccc(OCCCO)cc1)O[C@H]2c1ccccc1` TRUE

// inclusive: composite z-score at least 0.06? input: `C=CCNC(=O)[C@@H]1[C@H]2C(=O)O[C@H](c3ccccc3)[C@H](c3ccccc3)N2[C@H](c2ccccc2OCCO)[C@@]12C(=O)N(C(=O)OCCOC)c1ccccc12` TRUE

// inclusive: composite z-score at least 0.06? input: `O=C1c2ccccc2[C@](Cc2ccccc2I)(C(=O)NCC(F)(F)F)[C@H](c2ccc(CO)cc2)N1Cc1ccccc1Cl` FALSE

// inclusive: composite z-score at least 0.06? input: `CO[C@H]1O[C@H](CO)[C@@H](OC(=O)Nc2ccc(Oc3ccccc3)cc2)[C@H](OC(=O)Nc2ccc3c(c2)OCO3)[C@H]1OC(=O)Nc1ccc2c(c1)OCO2` TRUE

// inclusive: composite z-score at least 0.06? input: `COc1ccc([Si](C)(C)[C@H]2[C@H](CCO)O[C@@]3(C(=O)N(Cc4ccc(N(C=O)c5ccccc5)cc4)c4ccccc43)[C@@H]2C)cc1` FALSE

// inclusive: composite z-score at least 0.06? input: O=C1OCCC/C=C\[C@H]2OC34C=CCN(Cc5ccccc5)C(=O)[C@H]3N(CCCO)C(=O)[C@@H]4C12 (stereo partly specified) FALSE
